biological target: Motilin Receptor (Oryctolagus cuniculus); construct: The muscle tissue was homogenized in 10 volumes of 50 mM Tris-Cl; from tissue; host or cells: rabbit colon smooth muscle, crude membrane homogenate; experiment: Motilin receptor binding, rabbit colon membranes, 125I porcine motilin; set-up: dose or concentration left out as unconfirmed; conditions: rabbit colon membranes
Sequence (G1T803 1-400): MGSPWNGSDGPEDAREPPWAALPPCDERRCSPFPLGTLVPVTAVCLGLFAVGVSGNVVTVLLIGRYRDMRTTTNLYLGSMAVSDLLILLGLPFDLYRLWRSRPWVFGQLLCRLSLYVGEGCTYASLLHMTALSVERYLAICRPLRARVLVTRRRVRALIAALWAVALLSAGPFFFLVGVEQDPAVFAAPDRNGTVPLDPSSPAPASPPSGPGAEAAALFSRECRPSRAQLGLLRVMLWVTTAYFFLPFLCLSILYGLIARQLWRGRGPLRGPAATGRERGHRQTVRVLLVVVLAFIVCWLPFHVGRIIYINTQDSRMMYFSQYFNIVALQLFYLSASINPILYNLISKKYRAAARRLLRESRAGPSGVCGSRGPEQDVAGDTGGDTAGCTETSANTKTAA
Classify by measured Rabbit Colon % Inh: true if it is equal to or exceeds 30%, false if it is smaller.

O=C(Nc1ccccc1)N(CC1CCCC(N(Cc2ccccc2)C(=O)c2cc(C(F)(F)F)cc(C(F)(F)F)c2)C1)c1cccc(OCCN2CCOCC2)c1 (stereo not drawn) [compound 82]
false
O=C(c1ccc(F)cc1)N(CC1CCCC(N2C(=O)c3cc(Cl)c(Cl)cc3C2=O)C1)c1cccc(OCCN2CCOCC2)c1 (stereo not drawn) [compound 255]
false
O=C(CCc1ccccc1)N[C@@H](Cc1ccccc1)C(=O)N(Cc1ccc(F)cc1)c1cccc(OCCN2CCOCC2)c1 [compound 130]
false
O=C(NC1CCCC(CN(C(=O)Nc2ccccc2)c2cccc(OCCN3CCOCC3)c2)C1)c1ccc(-c2ccccc2)cc1 (stereo not drawn) [compound 75]
false
O=C(c1ccc(F)cc1)N(CC1CCCC(N(Cc2cccc3ccccc23)C(=O)C(Cl)(Cl)Cl)C1)c1cccc(OCCN2CCOCC2)c1 (stereo not drawn) [compound 94]
false
O=C(Nc1ccccc1)N(CC1CCCC(N(Cc2cccc3ccccc23)C(=O)C(Cl)(Cl)Cl)C1)c1cccc(OCCN2CCOCC2)c1 (stereo not drawn) [compound 64]
true
O=C(NC1CCCC(CN(C(=O)Nc2ccccc2)c2cccc(OCCN3CCOCC3)c2)C1)c1ccco1 (stereo not drawn) [compound 70]
false
O=C([C@H](Cc1ccccc1)NC(=O)C(Cl)(Cl)Cl)N(Cc1ccc(F)cc1)c1cccc(OCCN2CCOCC2)c1 [compound 131]
false
Cc1ccc(C(=O)N(CCCCC(=O)N(CCc2ccccc2)Cc2ccccc2)c2cccc(OCCN3CCOCC3)c2)cc1 [compound 6]
false
O=C(Nc1ccccc1)N(CC1CCCC(N(Cc2ccccc2)C(=O)c2ccc3ccccc3c2)C1)c1cccc(OCCN2CCOCC2)c1 (stereo not drawn) [compound 44]
false
O=C(c1ccc(F)cc1)N(CC1CCCC(N(Cc2ccccc2)S(=O)(=O)c2ccc3ccccc3c2)C1)c1cccc(OCCN2CCOCC2)c1 (stereo not drawn) [compound 123]
false
O=C(Nc1ccccc1)NC1CCCC(CN(C(=O)Nc2ccccc2)c2cccc(OCCN3CCOCC3)c2)C1 (stereo not drawn) [compound 69]
false
COc1cccc(C(=O)N(Cc2cccc(Cl)c2)C2CCC(CN(C(=O)Nc3ccccc3)c3cccc(OCCN4CCOCC4)c3)CC2)c1 (stereo not drawn) [compound 184]
false
O=C(Nc1ccccc1)N(CC1CCCC(N(Cc2cccc(Cl)c2Cl)C(=O)C(Cl)(Cl)Cl)C1)c1cccc(OCCN2CCOCC2)c1 (stereo not drawn) [compound 66]
true
Cc1ccc2c(c1)C(=O)N(C1CCCC(CN(C(=O)c3ccc(F)cc3)c3cccc(OCCN4CCOCC4)c3)C1)C2=O (stereo not drawn) [compound 256]
false
O=C(CCC(=O)N(Cc1ccc(Cl)cc1)c1cccc(OCCN2CCOCC2)c1)N(CCc1ccccc1)Cc1ccccc1 [compound 168]
true
Cc1ccc(S(=O)(=O)N(CCCC(=O)N(CCc2ccccc2)Cc2ccccc2)c2cccc(OCCN3CCOCC3)c2)cc1 [compound 2]
false
O=C(c1ccc(F)cc1)N(CC1CCCC(N(Cc2cccc(Cl)c2)C(=O)Cc2ccccc2)C1)c1cccc(OCCN2CCOCC2)c1 (stereo not drawn) [compound 244]
true
COc1ccc(CCN(Cc2ccccc2)C(=O)CCCN(C(=O)c2ccc(F)cc2)c2cccc(OCCN3CCOCC3)c2)cc1 [compound 146]
true
O=C(Nc1ccccc1)N(CC1CCCC(N(Cc2cccc(Cl)c2)C(=O)c2ccc(-c3ccccc3)cc2)C1)c1cccc(OCCN2CCOCC2)c1 (stereo not drawn) [compound 50]
true
O=C(NC1CCCC(CN(C(=O)Nc2ccccc2)c2cccc(OCCN3CCOCC3)c2)C1)C(c1ccccc1)c1ccccc1 (stereo not drawn) [compound 81]
true
O=C(c1ccc(F)cc1)N(CC1CCCC(N2C(=O)c3ccc(F)cc3C2=O)C1)c1cccc(OCCN2CCOCC2)c1 (stereo not drawn) [compound 251]
false
CCN(Cc1ccc(C)cc1)C(=O)CCCN(c1cccc(OCCN2CCOCC2)c1)S(=O)(=O)c1ccc(C)cc1 [compound 31]
true
O=C(Nc1ccccc1)N(CC1CCCC(N(Cc2cccc(Cl)c2)C(=O)CCc2ccccc2)C1)c1cccc(OCCN2CCOCC2)c1 (stereo not drawn) [compound 53]
true
O=C(Nc1ccccc1)N(CC1CCCC(N(Cc2cccc(F)c2)C(=O)C(Cl)(Cl)Cl)C1)c1cccc(OCCN2CCOCC2)c1 (stereo not drawn) [compound 58]
true
O=C(NC1CCCC(CN(C(=O)Nc2ccccc2)c2cccc(OCCN3CCOCC3)c2)C1)c1cccc([N+](=O)[O-])c1 (stereo not drawn) [compound 80]
true
